Measured IC50, listed per entry.
# TARGET_SYSTEM: human LSD1 (Homo sapiens (Human))

Notebook: Cc1ccc(-c2cnc(NCC3CNCCO3)nc2-c2ccc(C#N)cc2)cc1 (racemic) [Example 33] , IC50 read as < 100 nM

Notebook: N#Cc1ccc(-c2nc(N3CC4CNCC(C3)O4)ncc2-c2ccc(F)cc2)cc1 [Example 42] , IC50 read as 100 to 1000 nM

Notebook: N#Cc1ccc(-c2cc3c(ccn3C[C@H]3CCNC3)nc2Cl)cc1 [Example 4] , IC50 read as 100 to 1000 nM

Notebook: Cc1ccc(-c2cnc(N3CC4CNCC(C3)O4)nc2-c2ccc(C#N)cc2)cc1 [Example 41] , IC50 read as 100 to 1000 nM

Notebook: N#Cc1ccc(-c2nc(NC[C@H]3CCNC3)ncc2Cl)cc1 [Example 17] , IC50 read as 100 to 1000 nM

Notebook: N#Cc1ccc(-c2cc3c(ccn3CC3(F)CCNC3)nc2N2CCOCC2)cc1 (stereo not drawn) [Example 8] , IC50 read as 100 to 1000 nM
